target_or_system: MurC (UniProt C4ZRI6)
Sequence (C4ZRI6 whole entry, looked up): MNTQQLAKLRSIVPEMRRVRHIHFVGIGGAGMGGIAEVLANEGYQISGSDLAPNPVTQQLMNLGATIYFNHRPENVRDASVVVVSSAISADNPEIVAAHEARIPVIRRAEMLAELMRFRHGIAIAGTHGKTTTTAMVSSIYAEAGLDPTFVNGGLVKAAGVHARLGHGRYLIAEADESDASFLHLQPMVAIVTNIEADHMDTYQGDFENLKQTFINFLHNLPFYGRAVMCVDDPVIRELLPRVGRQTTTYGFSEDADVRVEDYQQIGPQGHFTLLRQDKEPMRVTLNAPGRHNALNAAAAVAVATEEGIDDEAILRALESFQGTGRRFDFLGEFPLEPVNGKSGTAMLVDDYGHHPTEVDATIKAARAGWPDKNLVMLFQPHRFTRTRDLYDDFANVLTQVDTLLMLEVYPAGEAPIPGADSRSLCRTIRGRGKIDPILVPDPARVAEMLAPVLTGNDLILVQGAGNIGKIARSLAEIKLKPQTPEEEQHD
method_notes: relative enzymatic activity vs untreated control (fraction); higher = less inhibition
condition_notes: 100 µM; incubation time: 2 h at 37 C
Catalogue of relative enzymatic activity readings, one per entry.
The response must contain the number and no unit.

Completed entries (count: 3):
compound=CC[C@H]1OC(=O)C[C@@H](O)[C@H](C)[C@@H](O[C@@H]2O[C@H](C)C[C@H](N(C)C)[C@H]2O)[C@@H](CC=O)C[C@@H](C)C(=O)/C=C/[C@]2(C)O[C@H]2[C@@H]1C endpoint_result=1.02
compound="CN(C)c1ccc(O)c2c1CC1CC3C(N(C)C)C(O)=C(C(N)=O)C(=O)C3(O)C(O)=C1C2=O.Cl (stereo not drawn)" endpoint_result=1.05
compound="NCC1OC(OC2C(N)CC(N)C(OC3OC(CO)C(O)C(N)C3O)C2O)C(N)C(O)C1O.O=S(=O)(O)O (stereo not drawn)" endpoint_result=1.04

Reported relative enzymatic activity, compound O=[N+]([O-])c1ccc(O)c2ncccc12 : ____
1.05

Please do the same for CCC(C)CCCCC(=O)NC(CCN)C(=O)NC(C(=O)NC(CCN)C(=O)NC1CCNC(=O)C(C(C)O)NC(=O)C(CCN)NC(=O)C(CCN)NC(=O)C(CC(C)C)NC(=O)C(Cc2ccccc2)NC(=O)C(CCN)NC1=O)C(C)O.O=S(=O)(O)O (stereo not drawn) as well.
0.986

Now this one: CO/N=C1\CN(c2nc3c(cc2F)c(=O)c(C(=O)O)cn3C2CC2)C[C@@H]1CN
0.717

Also check CCCCCCCCCCCCC[N+](C)(C)Cc1ccccc1.O.[Cl-]
0.556

* * *

target_or_system: DNA primase (UniProt P0ABS7)
Sequence (P0ABS7 whole entry): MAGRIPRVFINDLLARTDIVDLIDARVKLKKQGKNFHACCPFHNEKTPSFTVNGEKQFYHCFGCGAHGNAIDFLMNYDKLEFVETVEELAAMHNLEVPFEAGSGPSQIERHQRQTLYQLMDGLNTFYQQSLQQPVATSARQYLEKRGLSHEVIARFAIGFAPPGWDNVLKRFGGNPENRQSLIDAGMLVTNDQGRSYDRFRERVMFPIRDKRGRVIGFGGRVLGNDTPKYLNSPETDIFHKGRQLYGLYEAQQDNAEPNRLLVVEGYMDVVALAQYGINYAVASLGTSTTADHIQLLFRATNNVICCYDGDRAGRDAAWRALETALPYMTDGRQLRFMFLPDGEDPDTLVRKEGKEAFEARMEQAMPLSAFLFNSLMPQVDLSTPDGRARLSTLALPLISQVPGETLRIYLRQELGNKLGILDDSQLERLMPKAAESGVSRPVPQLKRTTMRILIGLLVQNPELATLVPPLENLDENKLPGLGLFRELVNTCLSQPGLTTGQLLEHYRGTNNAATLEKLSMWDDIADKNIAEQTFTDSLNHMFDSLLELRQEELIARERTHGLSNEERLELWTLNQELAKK
method_notes: relative enzymatic activity vs untreated control (fraction); higher = less inhibition
condition_notes: 100 µM; incubation time: 2 h at 37 C
outcome_measure: relative enzymatic activity
Note: the reply should be a number with no unit written.

Use the examples below as a reference point.
compound=C/C(=C\C(=O)OCCCCCCCCC(=O)O)C[C@@H]1OC[C@H](C[C@@H]2O[C@H]2[C@@H](C)[C@H](C)O)[C@@H](O)[C@H]1O target_or_system="DNA primase (UniProt P0ABS7)" outcome_measure="relative enzymatic activity" endpoint_result=0.807
compound="CCC1OC(=O)C(C)C(OC2CC(C)(OC)C(O)C(C)O2)C(C)C(OC2OC(C)CC(N(C)C)C2O)C(C)(O)CC(C)CN(C)C(C)C(O)C1(C)O (stereo unspecified)" target_or_system="DNA primase (UniProt P0ABS7)" outcome_measure="relative enzymatic activity" endpoint_result=0.712
compound="CC(O)C1C(=O)N2C(C(=O)O)=C(SC3CNC(C(=O)N(C)C)C3)C(C)C12 (stereo unspecified)" target_or_system="DNA primase (UniProt P0ABS7)" outcome_measure="relative enzymatic activity" endpoint_result=0.719
compound=NC(=O)NN=Cc1ccc([N+](=O)[O-])o1 target_or_system="DNA primase (UniProt P0ABS7)" outcome_measure="relative enzymatic activity" endpoint_result=0.739
compound=CN1CCN(c2c(F)cc3c(=O)c(C(=O)O)cn4c3c2SCC4)CC1 target_or_system="DNA primase (UniProt P0ABS7)" outcome_measure="relative enzymatic activity" endpoint_result=0.807
compound=O=C1NCCN1c1ncc([N+](=O)[O-])s1 target_or_system="DNA primase (UniProt P0ABS7)" outcome_measure="relative enzymatic activity" endpoint_result=0.839
compound=CC(C)(O/N=C(\C(=O)N[C@@H]1C(=O)N2C(C(=O)O)=C(C[n+]3ccccc3)CS[C@H]12)c1csc(N)n1)C(=O)O target_or_system="DNA primase (UniProt P0ABS7)" outcome_measure="relative enzymatic activity" endpoint_result=0.791
compound="CON=C(C(=O)NC1C(=O)N2C(C(=O)[O-])=C(COC(N)=O)CSC12)c1ccco1.[Na+] (stereo unspecified)" target_or_system="DNA primase (UniProt P0ABS7)" outcome_measure="relative enzymatic activity" endpoint_result=0.69

Please give the measured relative enzymatic activity for this compound: COC12C(COC(N)=O)C3=C(C(=O)C(C)=C(N)C3=O)N1CC1NC12 (stereo unspecified)
0.728

Likewise for Cl.Cl.N=C(NCCCCCCNC(=N)NC(=N)Nc1ccc(Cl)cc1)NC(=N)Nc1ccc(Cl)cc1 ?
0.306

Same thing, different compound: CN1CCN(c2c(F)cc3c(=O)c(C(=O)O)cn4c3c2OCN4C)CC1
0.86

O=C(Cn1cnnn1)NC1C(=O)N2C(C(=O)O)=C(CSc3nncs3)CSC12 (stereo unspecified) ?
0.828

Similarly, CNC1C(OC2C(OC3C(O)C(O)C(NC(=N)N)C(O)C3NC(=N)N)OC(C)C2(O)CO)OC(CO)C(O)C1O.O=S(=O)(O)O (stereo unspecified) ?
0.716
